Target Or Test System: rat adrenal receptor preparations (angiotensin II binding)
Experiment: inhibition of 125I-angiotensin II binding to rat adrenal receptor preparations
Conditions Used: read-out: IC50 (μM) for inhibition of 125I angiotensin II binding to rat adrenal receptor preparations
Metric: IC50
I'd appreciate it if you included the unit after the number.

Give the measured IC50 of O=C(O)C1Cc2c(ncn2Cc2ccccc2)CN1C(=O)C1c2ccccc2-c2ccccc21 (racemic) [Example 29] .
8 µM
